Conditions: a range is the spread between reports
This section presents molecules with their documented melting point values.

Use the examples below as a reference point.
{"Sample smiles": "Cc1cnccn1", "melting point": "-30 to -29 °C"}
{"Sample smiles": "c1ccc(-n2cccc2)cc1", "melting point": "59 to 62 °C"}
{"Sample smiles": "CCc1ccc(N)cc1", "melting point": "-5 to -4.8 °C"}

Problem: Can you share its melting point? I mean this molecule: N#CCc1ccc(Cl)cc1
Solution: 30 to 31 °C

Problem: And for CCCCCCCCCCCCCC ?
Solution: 5.5 to 6 °C

----------
Conditions: a range is the spread between reports
Assay metric: melting point

As a guide, the following entries are already answered.
{"Sample smiles": "O=C(O)c1ccc2c(c1)OCO2", "Assay metric": "melting point", "Value measured": "229 to 233 °C"}
{"Sample smiles": "CC(C)c1cc(C(C)C)cc(C(C)C)c1", "Assay metric": "melting point", "Value measured": "-7.4 to -7 °C"}
{"Sample smiles": "Nc1ccc(O)c([N+](=O)[O-])c1", "Assay metric": "melting point", "Value measured": "126 to 129 °C"}
{"Sample smiles": "O=C1OC(=O)c2cc(Cl)c(Cl)cc21", "Assay metric": "melting point", "Value measured": "186 to 188 °C"}
{"Sample smiles": "Oc1cccc(C(F)(F)F)c1", "Assay metric": "melting point", "Value measured": "-2 to -1.8 °C"}
{"Sample smiles": "CCCCCCCCCCCCCCCCCC(=O)OC", "Assay metric": "melting point", "Value measured": "39.1 to 40 °C"}

Problem: Could you share which melting point value was measured for CCOC(=O)C(=Cc1ccccc1)C(=O)OCC ?
Solution: 30 to 32 °C

Problem: Now this one: COc1cc(C#N)cc(OC)c1OC
Solution: 93 to 94 °C

Problem: And what about the compound CC(=O)CCCC(=O)O ?
Solution: 12 to 13.5 °C

Problem: Could you do the same for CNC(=O)Oc1ccccc1OC(C)C , please?
Solution: 90 to 91.5 °C

Problem: Also Cc1ccccc1O ?
Solution: 29.8 to 33 °C

Problem: Now consider CC(=O)n1ccnc1 and answer again.
Solution: 101 to 102 °C

Problem: // same read-out, input: O=C(O)c1ccc(C(=O)c2ccccc2)cc1
Solution: 198 to 199 °C

Problem: Queued: C/C=C\CC
Solution: -151 °C

Problem: Repeat for the following compound: CCOC(=O)CCCCCCCCC(=O)OCC
Solution: 2 to 5 °C

Problem: Next compound up: CC(C)(Oc1ccc(Cl)cc1)C(=O)O
Solution: 118 to 120 °C

Problem: Next record, please: NNc1cc(Cl)ccc1Cl
Solution: 102 to 104 °C

----------
Details: a range is the spread between reports
Assay metric: melting point

{"Sample smiles": "COC(=O)c1ccc(O)cc1", "melting point": "127 to 131 °C"}
{"Sample smiles": "NC(=O)c1c(Cl)cccc1Cl", "melting point": "198 to 199 °C"}
{"Sample smiles": "O=C(Cl)c1ccco1", "melting point": "-2 to -1 °C"}

Problem: Consider the compound shown here: c1ccc(CCc2ccccc2)cc1 What is its recorded melting point?
Solution: 51 to 55 °C

Problem: Please give the result for ClCCOc1ccccc1 too.
Solution: 24 to 28 °C

Problem: Same read-out for O=C(O)c1ccc(F)cc1F ?
Solution: 188 to 189 °C
